Target: T1, human CEACAM5 (human, UniProt P06731 35-685)
T1 construct: whole, on cells; Target on MKN-45 (DSMZ ACC409) and LS180 (ATCC CL-187) cells; also called carcinoembryonic antigen-related cell adhesion molecule 5; CD66e
T1 sequence (looked up): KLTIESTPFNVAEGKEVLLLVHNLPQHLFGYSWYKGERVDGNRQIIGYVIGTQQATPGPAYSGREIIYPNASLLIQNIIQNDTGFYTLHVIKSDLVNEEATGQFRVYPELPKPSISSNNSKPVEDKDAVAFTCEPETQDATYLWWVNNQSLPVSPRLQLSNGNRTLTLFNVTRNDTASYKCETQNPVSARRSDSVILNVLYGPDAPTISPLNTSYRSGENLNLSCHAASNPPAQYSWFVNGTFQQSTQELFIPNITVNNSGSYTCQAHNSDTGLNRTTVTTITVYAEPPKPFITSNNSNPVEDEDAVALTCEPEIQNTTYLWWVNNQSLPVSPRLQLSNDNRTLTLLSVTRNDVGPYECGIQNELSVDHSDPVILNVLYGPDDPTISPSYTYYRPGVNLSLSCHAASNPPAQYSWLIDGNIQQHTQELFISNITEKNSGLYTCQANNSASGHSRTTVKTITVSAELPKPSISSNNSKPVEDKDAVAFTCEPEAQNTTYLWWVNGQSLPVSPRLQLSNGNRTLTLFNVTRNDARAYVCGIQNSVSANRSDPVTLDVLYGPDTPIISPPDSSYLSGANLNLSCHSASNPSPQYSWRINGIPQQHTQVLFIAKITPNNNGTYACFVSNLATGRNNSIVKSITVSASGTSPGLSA
Test: FACS on MKN-45 cells expressing human CEACAM5
Measurement Name: EC50 (µg/mL)
// units = µg/mL; emit number, no label

Below, 2 binders whose answers are already recorded.
{"Binder": "P1AI5016 (antibody, human IgG1, V domains shown) VH: EVQLVESGGGLVQPGGSLRLSCAASGFNIKDTYMHWVRQAPGKGLEWVGRIDPANGNSKYADSVKGRFTISADTSKNTAYLQMNSLRAEDTAVYYCAPFGYYVSDYAMAYWGQGTTVTVSS VL: EIVLTQSPATLSLSPGERATLSCRAGESVDIFGVGFLHWYQQKPGQAPRLLIYRGSNRATGIPARFSGSGSGTDFTLTISSLEPEDFAVYYCQQTVEYPYTFGQGTKLEIK", "Measurement Name": "EC50", "Unit String": "µg/mL", "Value Observed": 0.588}
{"Binder": "P1AI5014 (antibody, human IgG1, V domains shown) VH: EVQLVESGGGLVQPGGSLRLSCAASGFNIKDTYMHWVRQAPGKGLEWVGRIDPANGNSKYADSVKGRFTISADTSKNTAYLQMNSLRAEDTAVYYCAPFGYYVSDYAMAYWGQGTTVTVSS VL: EIVLTQSPATLSLSPGERATLSCRAGESVDIFGVGFLHWYQQKPGQAPRLLIYRGSNRATGIPARFSGSGSGTDFTLTISSLEPEDFAVYYCQQTNEDPYTFGQGTKLEIK", "Measurement Name": "EC50", "Unit String": "µg/mL", "Value Observed": 1.53}

Then there is this binder:
Ask: Find the measured EC50 of P1AI5032 (antibody, human IgG1, name in Kabat numbering, V domains shown, Double mutant of T84.66-LCHA VL) VH: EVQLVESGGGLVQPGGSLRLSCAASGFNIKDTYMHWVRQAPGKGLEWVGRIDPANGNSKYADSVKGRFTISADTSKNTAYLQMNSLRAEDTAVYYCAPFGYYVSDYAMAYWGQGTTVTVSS VL: EIVLTQSPATLSLSPGERATLSCRAGESVDHFGVGFLHWYQQKPGQAPRLLIYRGSNRATGIPARFSGSGSGTDFTLTISSLEPEDFAVYYCQQTNEDPYTFGQGTKLEIK and report it.
Result: 1.53
